Origin of the recorded values: PubChem BioAssay AID330

# Test system: P388 leukemia ip, CD2F1 mice, survival T/C
# assay.overview: NCI In Vivo Anticancer Drug Screen. Data for tumor model P388 Leukemia (intraperitoneal) in CD2F1 (CDF1) mice
# recorded.conditions: endpoint: median survival time; dose: 120.0 mg/kg/injection; schedule: Q01DX005 (ip); vehicle: saline with Tween-80
Toxic doses and inconclusive results are not listed. Rule for the calls: active = survival T/C of 150% or more; inactive = T/C below 125% in these data.
# output must be one of active, inactive

Worked examples, 6 molecules total:
[
  {
    "molecule": "O=C(CN1CCC(O)(c2ccccc2)CC1)N1CCN(/C=C/c2ccccc2)CC1",
    "category.label": "inactive"
  },
  {
    "molecule": "CCCn1c(C)nc2cc(C(F)(F)F)cc([N+](=O)[O-])c21",
    "category.label": "inactive"
  },
  {
    "molecule": "O=C(/C=C/c1ccccc1)/C=C/c1ccccc1 (tested in a mixture with another compound)",
    "category.label": "inactive"
  },
  {
    "molecule": "N/C(CC(=O)Nc1ccc(F)cc1)=N\\O",
    "category.label": "inactive"
  },
  {
    "molecule": "COc1cc(C(=O)CC(=O)CCC(=O)Nc2ccc(Cl)cc2)ccc1O",
    "category.label": "inactive"
  },
  {
    "molecule": "NC(=S)N/N=C1/CC(=O)N(c2ccccc2)C1c1ccccc1 (configuration not stated)",
    "category.label": "inactive"
  }
]

Enquiry: Which outcome was assigned to C[C@]12C=CC(=O)NC[C@@H]1CC[C@@H]1[C@@H]2CC[C@]2(C)[C@@H](OC(=O)COc3ccc(N(CCCl)CCCl)cc3)CC[C@@H]12 in this test?
Return: active

Enquiry: Which outcome was assigned to COC1=C(OC)C(=O)C(C(=O)CCCCC(=O)O)=C(C)C1=O in this test?
Return: inactive

Enquiry: Which outcome was assigned to COc1ccc(C2OC3=Nc4cc(C)c(C)cc4NC3C2=O)cc1OC (configuration not stated) in this test?
Return: inactive

Enquiry: Which outcome was assigned to CCC1C2CC3C4N(C)c5ccccc5C45CC(C2C5O)N3C1O (configuration not stated) in this test?
Return: inactive

Enquiry: Which outcome was assigned to Cc1ccc(NC(=O)Cc2nc3ccccc3s2)c(C)c1 in this test?
Return: inactive

Enquiry: Which outcome was assigned to O=C(O)C#Cc1cccnc1 in this test?
Return: inactive

Enquiry: Which outcome was assigned to Cc1ccc(NC(=O)N2CCCCC2)cc1NC(=O)N1CCCCC1 in this test?
Return: inactive

Enquiry: Which outcome was assigned to S=c1sc(-c2ccc(Cl)cc2)nn1CSc1nc2ccccc2o1 in this test?
Return: inactive

Enquiry: Which outcome was assigned to CCOC(=O)N1OC2C=CC1CC2 (configuration not stated) in this test?
Return: inactive

Enquiry: Which outcome was assigned to O=c1cc(-c2ccccc2)c2cc3c(cc2[nH]1)oc1ccccc13 in this test?
Return: inactive

Enquiry: Which outcome was assigned to c1ccc(C2(c3ccc(C4(c5ccccc5)Oc5ccccc5S4)[nH]3)Oc3ccccc3S2)cc1 (configuration not stated) in this test?
Return: inactive

Enquiry: Which outcome was assigned to OCCN1CCN(C2=Nc3cccnc3Nc3cscc32)CC1 in this test?
Return: inactive

Enquiry: Which outcome was assigned to Nc1cc(=O)n(Cc2ccccc2)c(N)c1C(=O)NCc1ccccc1 in this test?
Return: inactive
